These data points were gathered from paper PMC4822050.

target_entity: T1, SRA-Spacer (human, UniProt Q96T88 414-674)
T1 sequence: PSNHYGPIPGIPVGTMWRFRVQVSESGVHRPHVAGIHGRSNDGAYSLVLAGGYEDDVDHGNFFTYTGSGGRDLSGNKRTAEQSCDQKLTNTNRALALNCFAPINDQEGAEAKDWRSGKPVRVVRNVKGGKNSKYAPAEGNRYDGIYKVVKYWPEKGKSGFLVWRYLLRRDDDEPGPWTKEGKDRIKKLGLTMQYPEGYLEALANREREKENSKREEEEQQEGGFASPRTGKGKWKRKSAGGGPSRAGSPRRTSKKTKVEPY
assay_procedure: FP; ITC: 10 mM HEPES pH 8.0, 100 mM NaCl, 18 C; EMSA: 20 mM HEPES pH 7.5, 100 mM NaCl, 8% glycerol, 1 mM DTT, on ice; pull-down: 20 mM HEPES-NaOH pH 8.0, 100 mM NaC
reported_endpoint: pKd
One number for each entry, as −log10 of the molar value.

**Query** Dear colleague, I am looking for the recorded pKd of the following binder: FAM-12bp-HM-DNA (dsDNA, 5-methyl-dC at position 6 of strand 2 (GTCAGXGCATGG)) DNA 1: CCATGCGCTGAC DNA 2: GTCAGCGCATGG
**Result** 6.31
